System: BDF1 mice, colon carcinoma 38 sc, T/C %
Experiment: NCI In Vivo Anticancer Drug Screen. Data for tumor model Colon Carcinoma 38 (subcutaneous) in B6D2F1 (BDF1) mice
Settings: endpoint: median tumor weight (est.); dose: 50.0 mg/kg/injection; schedule: Q07DX002 (ip); vehicle: saline; higher = larger tumour
Inconclusive results are not listed.
Reported T/C values for a set of compounds

IN: Entry `CN(C)CCC(=O)C(=Cc1ccc(O)cc1)C(=O)CCN(C)C` needs its T/C filled in; supply it.
OUT: 112 % of control

IN: Provide only the value of recorded T/C for `OCCN1CCN(CCCN2c3ccccc3Sc3ccc(C(F)(F)F)cc32)CC1`
OUT: 56 % of control

IN: # return recorded T/C for input C=C1C(=O)OC2CC(C)C3C4OC4C(O)C3(C)C(O)C12 (configuration not stated)
OUT: 80 % of control

IN: Find the measured T/C of `CN(CO)c1nc(N(C)CO)nc(N(C)CO)n1` and report it.
OUT: 66 % of control

IN: Write down T/C measured for item OCC1OC(n2cnc3c(=S)nc[nH]c32)C(O)C1O (configuration not stated)
OUT: 14 % of control

IN: For `CC[N](CC)[Ge]([CH2]C)[CH2]C.CC[N](CC)[Ge]([CH2]C)[CH2]C` , write its T/C.
OUT: 77 % of control

IN: Give the measured T/C for Cc1cc2nc3c(=O)[nH]c(=O)nc-3n(CC(O)C(O)C(O)C(O)CO)c2cc1C (configuration not stated)
OUT: 100 % of control
